target: hERG (Homo sapiens, UniProt Q12809)
Construct: expressed in transfected cells; host or cells: Chinese Hamster Ovary cells (hERG-CHO), stably transfected
Sequence (Q12809 whole entry): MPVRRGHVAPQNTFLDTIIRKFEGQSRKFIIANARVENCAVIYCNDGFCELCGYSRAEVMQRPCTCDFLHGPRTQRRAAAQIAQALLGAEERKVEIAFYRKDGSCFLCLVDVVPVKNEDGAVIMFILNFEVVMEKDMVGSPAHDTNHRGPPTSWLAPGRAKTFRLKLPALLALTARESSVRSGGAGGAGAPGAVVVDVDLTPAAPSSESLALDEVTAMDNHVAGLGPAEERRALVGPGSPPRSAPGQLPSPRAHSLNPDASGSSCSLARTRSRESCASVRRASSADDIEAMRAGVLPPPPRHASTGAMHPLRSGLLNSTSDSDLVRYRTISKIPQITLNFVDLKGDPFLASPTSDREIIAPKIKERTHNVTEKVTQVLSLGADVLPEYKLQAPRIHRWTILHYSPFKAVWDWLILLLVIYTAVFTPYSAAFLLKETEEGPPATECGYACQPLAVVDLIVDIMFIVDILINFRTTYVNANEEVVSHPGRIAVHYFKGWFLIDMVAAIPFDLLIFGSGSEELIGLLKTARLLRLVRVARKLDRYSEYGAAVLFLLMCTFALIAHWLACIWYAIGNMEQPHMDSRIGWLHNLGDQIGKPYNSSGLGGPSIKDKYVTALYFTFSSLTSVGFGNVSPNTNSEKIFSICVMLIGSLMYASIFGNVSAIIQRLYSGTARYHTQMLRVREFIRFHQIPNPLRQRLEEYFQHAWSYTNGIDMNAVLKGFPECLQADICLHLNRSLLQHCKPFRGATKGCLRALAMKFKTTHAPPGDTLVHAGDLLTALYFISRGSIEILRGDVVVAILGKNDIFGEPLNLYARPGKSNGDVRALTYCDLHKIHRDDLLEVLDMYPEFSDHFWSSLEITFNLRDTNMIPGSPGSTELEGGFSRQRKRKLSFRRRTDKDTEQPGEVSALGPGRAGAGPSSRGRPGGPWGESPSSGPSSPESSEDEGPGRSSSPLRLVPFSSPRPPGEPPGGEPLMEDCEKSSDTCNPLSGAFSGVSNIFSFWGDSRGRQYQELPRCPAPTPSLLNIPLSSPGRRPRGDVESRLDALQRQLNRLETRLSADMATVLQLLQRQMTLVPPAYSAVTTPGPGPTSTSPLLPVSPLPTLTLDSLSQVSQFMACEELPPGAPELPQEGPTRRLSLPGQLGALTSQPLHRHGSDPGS
measurementNotes: hERG Ion Channel Assay (Q-patch, hERG-CHO cells)
Assay type: cell-based
recordedConditions: human, CHO cells stably transfected with hERG (hERG-CHO), pH 7.4, 30 μM; a mid-scale batch was tested
Protocol: The activity of the compounds against the hERG ion channel was tested. […] After the whole cell configuration was achieved, the extracellular solution (control) was applied first and the cell was stabilized for 2 minutes in extracellular solution. […] During each incubation, the cell was repetitively stimulated using the voltage protocol described above, and the tail current amplitude was continuously monitored. […]
measuredAttribute: inhibition at 5 min, 30 µM (%)
Please state the figure in %; there is no need to write the unit.

Request: GET /values?readout=inhibition at 5 min, 30 µM&item= C[C@]1(O)CC[C@@H](NS(=O)(=O)c2ccc(-c3ccc(F)cc3F)cc2)CC1 [ABD899, reference compound]
Response: 53

====

measurementNotes: Human Liver Microsomal Stability
Type: in vitro ADME
recordedConditions: both sexes, pooled liver microsomes, pH 7.4, human liver microsomes 0.5 mg/mL protein, 1 μM compound, 6 time points 0-60 min, two replicates, read-out: T1/2 (2)
Below is a list of entries, each paired with its recorded half-life at 1 μM value.
Answer format: numeric, h implied, no suffix.

substanceSmiles	unitsOfMeasure	recordedResult
C[C@]1(O)CC[C@@H](NS(=O)(=O)c2ccc(-c3ncc(F)cc3F)cc2)CC1	h	2.8
C[C@]1(O)CC[C@H](NS(=O)(=O)c2ccc(-c3ccc(F)cc3C#N)cc2)CC1	h	2.05
C[C@]1(O)CC[C@H](NS(=O)(=O)c2ccc(-c3ccc(C#N)cc3F)cc2)CC1	h	4

Here is another compound to look at.
Request: Would you mind telling me what half-life at 1 μM value was observed for C[C@]1(O)CC[C@@H](NS(=O)(=O)c2ccc(-c3ccc(F)cc3C(F)(F)F)cc2)CC1 ?
Response: 0.3

====

measurementNotes: Aqueous (FaSSIF) solubility
Assay type: physicochemical
recordedConditions: fasted state simulated intestinal fluid (FaSSIF), pH 6.8, two replicates, read-out: Solubility (2)
Form field: solubility (one value per entry).
Unit µg/mL implied. Number only.

As a guide, the following entries are already answered.
molecule	solubility, µg/mL
C[C@]1(O)CC[C@@H](NS(=O)(=O)c2ccc(-c3ncc(Cl)cc3Cl)cc2)CC1	100
C[C@]1(O)CC[C@@H](NS(=O)(=O)c2ccc(-c3ncc(F)cc3F)cc2)CC1	120
C[C@]1(O)CC[C@H](NS(=O)(=O)c2ccc(-c3ccc(F)cc3C#N)cc2)CC1	190
C[C@]1(O)CC[C@H](NS(=O)(=O)c2ccc(-c3ccc(C#N)cc3F)cc2)CC1	110
C[C@]1(O)CC[C@@H](NS(=O)(=O)c2ccc(-c3ccc(Cl)cc3C#N)cc2)CC1	80
C[C@]1(O)CC[C@@H](NS(=O)(=O)c2ccc(-c3ccc(F)cc3C(F)(F)F)cc2)CC1	70
C[C@]1(O)CC[C@@H](NS(=O)(=O)c2ccc(-c3ccc(F)cc3F)cc2)CC1 [ABD899, reference compound]	130

Request: Entry under review: C[C@]1(O)CC[C@H](NS(=O)(=O)c2ccc(-c3ccc(F)cc3F)cc2)CC1 [ABD900, reference compound] . Reported solubility?
Response: 120
